Reference source: patent US20230295140A1

Below, each entry is listed with its recorded IC50.
molecular target: rhMAO-B (Homo sapiens (Human)); assay: MAO-Glo assay, MAO-B inhibition; type: biochemical; conditions: class symbols, ranges defined in μM
Sequence (P27338 whole entry): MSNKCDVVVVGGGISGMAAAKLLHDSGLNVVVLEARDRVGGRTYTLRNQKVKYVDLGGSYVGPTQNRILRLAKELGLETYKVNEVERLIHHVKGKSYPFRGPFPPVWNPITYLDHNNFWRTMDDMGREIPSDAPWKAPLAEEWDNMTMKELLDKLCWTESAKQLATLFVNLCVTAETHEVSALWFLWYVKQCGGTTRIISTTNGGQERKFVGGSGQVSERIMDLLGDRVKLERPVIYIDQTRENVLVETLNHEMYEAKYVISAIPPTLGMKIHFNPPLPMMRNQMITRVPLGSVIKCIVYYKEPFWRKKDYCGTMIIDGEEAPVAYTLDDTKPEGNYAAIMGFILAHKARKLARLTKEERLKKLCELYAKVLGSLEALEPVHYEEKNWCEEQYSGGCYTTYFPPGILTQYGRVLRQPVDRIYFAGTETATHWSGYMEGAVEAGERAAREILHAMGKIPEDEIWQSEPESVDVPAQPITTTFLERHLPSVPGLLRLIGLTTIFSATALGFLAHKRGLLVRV
Counter-ions that a name gives are not always drawn.

Below, 10 compounds whose answers are already recorded.
Look up IC50: CCCCc1nc2cc(OC/C(=C/F)CN)ccc2o1 [Example 8, 4-methylbenzenesulfonate]
< 0.1 µM

What does the data say about its IC50? Entry: NC/C(=C\F)COc1ccc2nc(C34CCC(CC3)CC4)oc2c1 [Example 34, 4-methylbenzenesulfonate]
0.1 to 1 µM

Please give the measured IC50 for this compound: CCCCc1nc2ccc(OCC(CN)=C(F)F)cc2o1 [Example 32, hydrochloride]
10 to 30 µM

So what does the record say about IC50 for COc1cc(CNc2nc3ccc(OC/C(=C\F)CN)cc3o2)ccn1 [Example 74, 4-methylbenzenesulfonate] ?
1 to 10 µM

Entry CCCCc1nc2ccc(OC/C(=C\F)CN)c(F)c2s1 [Example 15, 4-methylbenzenesulfonate] : reported IC50 = ?
< 0.1 µM

For CCCCc1nc2ccc(SC/C(=C/F)CN)cc2o1 [Example 22, 4-methylbenzenesulfonate] , what is its reported IC50?
0.1 to 1 µM

Item CC1(C)CCC(c2nc3ccc(OC/C(=C/F)CN)cc3o2)CC1 [Example 36, 4-methylbenzenesulfonate] has what recorded IC50?
0.1 to 1 µM

Report IC50 for NC/C(=C/F)COc1ccc2nc(N3CCOCC3)oc2c1 [Example 64, 4-methylbenzenesulfonate] please.
1 to 10 µM

State the recorded IC50 for this entry: CCCCc1nc2ccc(OC/C(=C\F)CN)cc2n1C [Example 73, 4-methylbenzenesulfonate]
1 to 10 µM

Need IC50, item CCCCc1nc2ccc(OC/C(=C/F)CN)cc2[nH]1 [Example 13, 4-methylbenzenesulfonate]
1 to 10 µM

***
Recorded IC50 for CCCCc1nc2ccc(OC/C(=C/F)CN)c(C)c2o1 , please?
< 0.1 µM

Item CCCNc1nc2ccc(OC/C(=C/F)CN)cc2s1 has what recorded IC50?
0.1 to 1 µM

Can you share its IC50? I mean this compound: CC(C)(C)Nc1nc2ccc(OC/C(=C/F)CN)cc2o1 [Example 39, 4-methylbenzenesulfonate]
1 to 10 µM

What does the record list as IC50 for CC(C)(C)CNc1nc2ccc(OC/C(=C/F)CN)cc2o1 [Example 59, (4-methylbenzenesulfonate)] ?
1 to 10 µM

Record request: IC50 value, item CCCCc1nc2cc(C)c(OC/C(=C/F)CN)cc2o1 [Example 68, 4-methylbenzenesulfonate]
0.1 to 1 µM

Value lookup for IC50; key = NC/C(=C\F)COc1ccc2nc(N3CCS(=O)(=O)CC3)oc2c1 [Example 90, 4-methylbenzenesulfonate]
1 to 10 µM
